Data provenance is patent US20200339544A1.

Assay: General cytotoxicity on HepG2 cells
Assay type: cell-based
Details: human; general cytotoxicity, HepG2 cells, 72 hours, average of several tests
Mark label 1 only for CC50 at 72 h values smaller than 20 µM; exact matches and larger values are label 0.

# molecule_smiles, classification
records = [
    ("C=CC(=O)Nc1cc(Nc2nccc(C(=O)c3ccc(Br)cc3)n2)c(OC)cc1N(C)CCN(C)C", "label 1"),
    ("C=CC(=O)Nc1cc(Nc2nccc(C(=O)c3ccc(N4CCC[C@H](OC)C4)cc3)n2)c(OC)cc1N(C)CCN(C)C", "label 1"),
    ("C=CC(=O)Nc1cc(Nc2nccc(C(=O)c3ccc(N4CCC4)cc3)n2)c(OC)cc1N(C)CCN(C)C", "label 0"),
    ("C=CC(=O)Nc1cc(Nc2cc(C(=O)c3ccc(-c4cnn(C)c4)cc3)ccn2)c(OC)cc1N(C)CCN(C)C", "label 0"),
    ("C=CC(=O)Nc1cc(Nc2nccc(C(=O)c3ccc(Oc4ccccc4)cc3)n2)c(OC)cc1N(C)CCN(C)C", "label 1"),
    ("C=CC(=O)Nc1cc(Nc2cc(C(=O)c3ccc(OC)cc3)ccn2)c(OC)cc1N(C)CCN(C)C", "label 0"),
    ("C=CC(=O)Nc1cc(Nc2nccc(C(=O)c3ccc(N4CCC(OC)CC4)cc3)n2)c(OC)cc1N(C)CCN(C)C", "label 0"),
]

* * *

Test system: H1975 (lung adenocarcinoma, DM, L828R/T790M)
Assay: Antiproliferative activity on H1975 cells (Alamar Blue)
Type: cell-based
Conditions: selectivity index, A549 vs H1975 cells
Listing of recorded SI IC50(A549)/IC50(DM) by entry.

# molecule, target_system, sign, SI IC50(A549)/IC50(DM)
measured = [
    ("C=CC(=O)Nc1cc(Nc2nccc(C(=O)c3ccc(NCCO)cc3)n2)c(OC)cc1N(C)CCN(C)C.O=CO [EGFR_3365_106]", "H1975 (lung adenocarcinoma, DM, L828R/T790M)", ">", 601),
    ("C=CC(=O)Nc1cc(Nc2nccc(C(=O)c3ccc(N4CCC[C@@H](OC)C4)cc3)n2)c(OC)cc1N(C)CCN(C)C [EGFR_3365_111]", "H1975 (lung adenocarcinoma, DM, L828R/T790M)", "=", 307),
    ("C=CC(=O)Nc1cc(Nc2cc(C(=O)c3ccc(C)cc3)ccn2)c(OC)cc1N(C)CCN(C)C [EGFR_3365_57]", "H1975 (lung adenocarcinoma, DM, L828R/T790M)", "=", 124),
    ("C=CC(=O)Nc1cc(Nc2cc(C(=O)c3ccc(OC)cc3)ccn2)c(OC)cc1N(C)CCN(C)C [EGFR_3365_51]", "H1975 (lung adenocarcinoma, DM, L828R/T790M)", "=", 340),
    ("C=CC(=O)Nc1cc(Nc2nccc(C(=O)c3ccc(F)cc3)n2)c(OC)cc1N(C)CCN(C)C [EGFR_3365_10]", "H1975 (lung adenocarcinoma, DM, L828R/T790M)", "=", 62.70),
    ("C=CC(=O)Nc1cc(Nc2nccc(C(=O)c3ccc(OC(C)C)cc3OC)n2)c(OC)cc1N(C)CCN(C)C [EGFR_3365_103]", "H1975 (lung adenocarcinoma, DM, L828R/T790M)", "=", 954),
    ("C=CC(=O)Nc1cc(Nc2nccc(C(=O)c3cccc(OC)c3)n2)c(OC)cc1N(C)CCN(C)C [EGFR_3365_32]", "H1975 (lung adenocarcinoma, DM, L828R/T790M)", "=", 376.12),
    ("C=CC(=O)Nc1cc(Nc2nccc(C(=O)c3ccc(OCCC)cc3OCCC)n2)c(OC)cc1N(C)CCN(C)C [EGFR_3365_70]", "H1975 (lung adenocarcinoma, DM, L828R/T790M)", "=", 22),
]
